system: SW-620; assay type: cell-based, human
Measured Parameter: Log10GI50

Worked cases, answers included:
COc1cc(C)c(-c2ccc(OC)c(=O)cc2C)c(OC)c1OC (single isomer, unassigned) [(aR)-6]; -5.91 Molar
COc1cc(C)c(-c2ccc(=O)c(OC)cc2C)c(OC)c1OC (single isomer, unassigned) [(aS)-iso-6]; -4.55 Molar
COc1cc(C)c(-c2ccc(OC)c(=O)cc2C)c(OC)c1OC (single isomer, unassigned) [(aS)-6]; > -4.00 Molar

What Log10GI50 appears in the records for this compound with SW-620? COc1cc(C)c(-c2ccc(=O)c(OC)cc2C)c(OC)c1OC (single isomer, unassigned) [(aR)-iso-6]
> -4.00 Molar

---

Log10TGI overview
test system: RXF 393; format: cell-based, human

If you can, please state the reported Log10TGI value of COc1cc(C)c(-c2ccc(OC)c(=O)cc2C)c(OC)c1OC (single isomer, unassigned) [(aS)-6] .
> -4.00 Molar

If you can, please state the reported Log10TGI value of COc1cc(C)c(-c2ccc(=O)c(OC)cc2C)c(OC)c1OC (single isomer, unassigned) [(aS)-iso-6] .
-4.12 Molar

If you can, please state the reported Log10TGI value of COc1cc(C)c(-c2ccc(=O)c(OC)cc2C)c(OC)c1OC (single isomer, unassigned) [(aR)-iso-6] .
> -4.00 Molar

If you can, please state the reported Log10TGI value of COc1cc(C)c(-c2ccc(OC)c(=O)cc2C)c(OC)c1OC (single isomer, unassigned) [(aR)-6] .
> -4.00 Molar

---

System: A498
Type: cell-based, human
Protocol: (aR)-6, (aS)-6, (aS)-iso -6, and (aR)-iso -6 were submitted to the 60 Cell Screen panel and evaluated at 5 doses (100 μM, 10 μM, 1 μM, 0.1 μM, and 0.01 μM). […] The complete report from this submission is available at the publisher’s Web site as a separate Supporting Information file. For COMPARE analysis, TGI levels of response for (aR)-DM-MTC (6) and (aS)-iso-DM-MTC were compared to those of several established tubulin inhibitors previously tested in the NCI-60 screen.
Log10TGI overview
Express it in Molar; write the number only.

COc1cc(C)c(-c2ccc(=O)c(OC)cc2C)c(OC)c1OC (single isomer, unassigned) [(aS)-iso-6]; -4.28

Now look at this one.
If you can, please state the reported Log10TGI value of COc1cc(C)c(-c2ccc(OC)c(=O)cc2C)c(OC)c1OC (single isomer, unassigned) [(aR)-6] .
-5.34

---

Log10GI50 overview
tested on: UACC-62; format: cell-based, human

If you can, please state the reported Log10GI50 value of COc1cc(C)c(-c2ccc(=O)c(OC)cc2C)c(OC)c1OC (single isomer, unassigned) [(aR)-iso-6] .
> -4.00 Molar

If you can, please state the reported Log10GI50 value of COc1cc(C)c(-c2ccc(OC)c(=O)cc2C)c(OC)c1OC (single isomer, unassigned) [(aS)-6] .
> -4.00 Molar

If you can, please state the reported Log10GI50 value of COc1cc(C)c(-c2ccc(OC)c(=O)cc2C)c(OC)c1OC (single isomer, unassigned) [(aR)-6] .
-6.03 Molar

If you can, please state the reported Log10GI50 value of COc1cc(C)c(-c2ccc(=O)c(OC)cc2C)c(OC)c1OC (single isomer, unassigned) [(aS)-iso-6] .
-4.78 Molar
